Values from the kinase profiling compilation of Christmann-Franck et al. (2016)

measured target: IRAK1 (human) (UniProt P51617)
Sequence (P51617 whole entry, looked up): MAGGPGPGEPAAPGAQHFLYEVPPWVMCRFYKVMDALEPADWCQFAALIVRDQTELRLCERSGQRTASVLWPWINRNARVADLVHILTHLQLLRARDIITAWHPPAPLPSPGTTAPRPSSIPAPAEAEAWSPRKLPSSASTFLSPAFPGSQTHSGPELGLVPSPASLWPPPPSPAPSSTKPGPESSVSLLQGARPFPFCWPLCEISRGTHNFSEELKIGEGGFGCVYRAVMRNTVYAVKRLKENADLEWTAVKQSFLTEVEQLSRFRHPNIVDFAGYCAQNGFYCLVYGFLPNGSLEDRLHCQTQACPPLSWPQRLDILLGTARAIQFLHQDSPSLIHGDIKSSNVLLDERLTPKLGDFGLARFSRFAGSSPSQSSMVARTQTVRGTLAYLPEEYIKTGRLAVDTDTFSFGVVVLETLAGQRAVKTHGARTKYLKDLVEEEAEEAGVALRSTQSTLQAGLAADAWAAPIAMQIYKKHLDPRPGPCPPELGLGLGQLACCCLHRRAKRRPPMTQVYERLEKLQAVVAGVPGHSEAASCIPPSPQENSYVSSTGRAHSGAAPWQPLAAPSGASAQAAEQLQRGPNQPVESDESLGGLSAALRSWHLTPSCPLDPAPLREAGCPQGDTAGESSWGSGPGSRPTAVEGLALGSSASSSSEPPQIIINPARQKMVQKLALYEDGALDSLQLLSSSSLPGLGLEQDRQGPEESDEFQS
test protocol: KINOMEscan competition binding
condition notes: compound 10.0 µM
So basically: is kinase still bound, per cent of control under 3%? Then T. Not under? Then F.

record_smiles=CCN1CCN(C(=O)Cc2ccc(Nc3ncc(F)c(Nc4ccc(C(=O)Nc5ccccc5Cl)cc4)n3)cc2)CC1 measured_target="IRAK1 (human) (UniProt P51617)" qualitative_label=F

Ask: Find out if reported kinase still bound, per cent of control for COc1ccc(N(C(=O)Oc2c(C)cccc2C)c2ccnc(Nc3ccc(N4CCN(C)CC4)cc3)n2)c(OC)c1 is less than 3%
Result: F

Ask: Find out if reported kinase still bound, per cent of control for C[C@@H](Oc1cc(-c2cnn(C3CCNCC3)c2)cnc1N)c1c(Cl)ccc(F)c1Cl is less than 3%
Result: T

Ask: Find out if reported kinase still bound, per cent of control for C=CC(=O)Nc1cc(-n2c(=O)ccc3cnc4ccc(-c5cn[nH]c5)cc4c32)ccc1C is less than 3%
Result: F

Ask: Find out if reported kinase still bound, per cent of control for COc1cc2ncnc(-n3nc(-c4ccccn4)nc3N)c2cc1OC is less than 3%
Result: T

Ask: Find out if reported kinase still bound, per cent of control for CN(C)C/C=C/C(=O)Nc1ccc(C(=O)Nc2cccc(Nc3nccc(-c4cccnc4)n3)c2)cc1 is less than 3%
Result: T

* * *

measured target: AKT1 (human) (UniProt P31749)
Sequence (P31749 whole entry, looked up): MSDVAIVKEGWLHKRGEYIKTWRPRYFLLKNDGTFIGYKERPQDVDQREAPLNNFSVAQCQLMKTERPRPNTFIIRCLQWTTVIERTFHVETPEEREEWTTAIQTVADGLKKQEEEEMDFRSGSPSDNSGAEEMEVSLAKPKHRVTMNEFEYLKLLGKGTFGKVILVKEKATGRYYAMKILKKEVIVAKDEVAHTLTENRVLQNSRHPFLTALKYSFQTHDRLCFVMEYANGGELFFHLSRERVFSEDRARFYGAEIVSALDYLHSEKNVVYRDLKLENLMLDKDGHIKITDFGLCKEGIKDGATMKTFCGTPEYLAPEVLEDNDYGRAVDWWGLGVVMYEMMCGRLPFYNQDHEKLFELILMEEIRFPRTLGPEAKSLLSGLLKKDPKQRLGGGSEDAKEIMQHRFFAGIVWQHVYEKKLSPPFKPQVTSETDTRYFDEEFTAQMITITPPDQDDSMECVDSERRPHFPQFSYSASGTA
test protocol: KINOMEscan competition binding
condition notes: compound 10.0 µM
quantity kind: kinase still bound, per cent of control (%)
Note: unit % is implicit; provide only the numeric part.

Take a look at these entries with their results.
record_smiles=CS(=O)(=O)N1CCN(Cc2cc3nc(-c4cccc5[nH]ncc45)nc(N4CCOCC4)c3s2)CC1 observed_measurement=100
record_smiles=CNC(=O)c1cc(Oc2ccc(NC(=O)Nc3ccc(Cl)c(C(F)(F)F)c3)cc2)ccn1 observed_measurement=100
record_smiles=C=CC(=O)Nc1ccc(CN(C(=O)Nc2c(Cl)c(OC)cc(OC)c2Cl)c2cc(Nc3ccc(N4CCN(C)CC4)cc3)ncn2)cc1 observed_measurement=100
record_smiles=Cc1n[nH]c2ccc(-c3cncc(OC[C@@H](N)Cc4c[nH]c5ccccc45)c3)cc12 observed_measurement=1.8
record_smiles=C[C@@H](Oc1cc(-c2cnn(C3CCNCC3)c2)cnc1N)c1c(Cl)ccc(F)c1Cl observed_measurement=100

Now, please, on to the next compound.
kinase still bound, per cent of control reported for this compound O=c1cc(N2CCOCC2)oc2c(-c3cccc4c3sc3ccccc34)cccc12 : 89

* * *

Overview of recorded kinase still bound, per cent of control for various compounds
measured target: AXL (human) (UniProt P30530)
Sequence (P30530 whole entry, looked up): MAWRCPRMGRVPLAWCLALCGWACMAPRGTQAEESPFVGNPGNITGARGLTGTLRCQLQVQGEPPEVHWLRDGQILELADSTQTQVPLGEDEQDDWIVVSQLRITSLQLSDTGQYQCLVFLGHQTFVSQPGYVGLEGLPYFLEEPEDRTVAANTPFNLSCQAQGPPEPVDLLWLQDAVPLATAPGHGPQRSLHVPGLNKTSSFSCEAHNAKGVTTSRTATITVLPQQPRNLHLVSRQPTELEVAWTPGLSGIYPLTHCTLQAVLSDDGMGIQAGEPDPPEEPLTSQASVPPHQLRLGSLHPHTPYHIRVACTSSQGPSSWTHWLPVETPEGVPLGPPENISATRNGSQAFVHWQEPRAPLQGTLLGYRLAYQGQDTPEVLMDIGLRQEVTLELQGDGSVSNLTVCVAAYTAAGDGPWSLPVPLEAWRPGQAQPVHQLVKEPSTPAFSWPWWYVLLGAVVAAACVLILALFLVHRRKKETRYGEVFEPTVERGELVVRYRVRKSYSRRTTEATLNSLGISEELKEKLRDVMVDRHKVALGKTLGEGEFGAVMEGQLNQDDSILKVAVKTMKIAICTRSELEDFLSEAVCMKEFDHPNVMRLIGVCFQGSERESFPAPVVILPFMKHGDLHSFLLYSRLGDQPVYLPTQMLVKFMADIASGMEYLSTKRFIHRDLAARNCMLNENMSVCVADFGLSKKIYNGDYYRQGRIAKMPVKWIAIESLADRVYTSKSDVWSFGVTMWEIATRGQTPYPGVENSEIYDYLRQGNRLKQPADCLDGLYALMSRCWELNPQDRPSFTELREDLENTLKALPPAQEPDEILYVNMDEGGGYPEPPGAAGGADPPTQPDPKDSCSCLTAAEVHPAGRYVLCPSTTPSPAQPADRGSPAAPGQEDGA
test protocol: KINOMEscan competition binding
condition notes: compound 10.0 µM
Note: unit % is implicit; provide only the numeric part.

Take a look at these entries with their results.
record_smiles=CCN(CC)CCCCNc1ncc2cc(-c3cc(OC)cc(OC)c3)c(NC(=O)NC(C)(C)C)nc2n1 quantity_kind="kinase still bound, per cent of control" observed_measurement=100
record_smiles=COc1cc2ncn(-c3cc(OCc4ccccc4C(F)(F)F)c(C(N)=O)s3)c2cc1OC quantity_kind="kinase still bound, per cent of control" observed_measurement=65

Now, please, on to the next compound.
kinase still bound, per cent of control reported for this compound CCN(CC)CCCCNc1ncc2c(n1)N(C)C(=O)N(c1c(Cl)c(OC)cc(OC)c1Cl)C2 : 100

* * *

Overview of recorded kinase still bound, per cent of control for various molecules
measured target: CAMKK1 (human) (UniProt Q8N5S9)
Sequence (Q8N5S9 whole entry, looked up): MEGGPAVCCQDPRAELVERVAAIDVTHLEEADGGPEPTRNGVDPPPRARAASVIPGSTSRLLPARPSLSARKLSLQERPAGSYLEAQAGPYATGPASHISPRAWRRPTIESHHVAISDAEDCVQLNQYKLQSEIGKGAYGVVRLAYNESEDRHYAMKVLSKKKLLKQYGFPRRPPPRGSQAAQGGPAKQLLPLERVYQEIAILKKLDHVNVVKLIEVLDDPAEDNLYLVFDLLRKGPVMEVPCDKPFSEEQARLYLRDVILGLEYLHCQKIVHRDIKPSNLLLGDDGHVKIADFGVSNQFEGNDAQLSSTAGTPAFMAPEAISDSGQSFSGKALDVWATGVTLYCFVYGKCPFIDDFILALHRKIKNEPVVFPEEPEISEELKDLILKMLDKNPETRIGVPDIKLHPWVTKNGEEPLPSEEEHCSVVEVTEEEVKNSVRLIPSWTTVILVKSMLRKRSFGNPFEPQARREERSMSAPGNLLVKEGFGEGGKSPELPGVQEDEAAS
test protocol: KINOMEscan competition binding
condition notes: compound 10.0 µM
Note: unit % is implicit; provide only the numeric part.

Take a look at these entries with their results.
record_smiles=COc1cc(C(=O)N2CCC(N3CCN(C)CC3)CC2)ccc1Nc1ncc2c(n1)N(C)c1ccccc1C(=O)N2C measured_target="CAMKK1 (human) (UniProt Q8N5S9)" units_of_measure=% observed_measurement=73
record_smiles=CCN(CC)CCCCNc1ncc2c(n1)N(C)C(=O)N(c1c(Cl)c(OC)cc(OC)c1Cl)C2 measured_target="CAMKK1 (human) (UniProt Q8N5S9)" units_of_measure=% observed_measurement=100

Let me check: COc1cc(N2CCN(C)CC2)ccc1Nc1ncc2c(n1)N(C)c1ccccc1C(=O)N2C , system CAMKK1 (human) (UniProt Q8N5S9), measured kinase still bound, per cent of control is 100

* * *

measured target: MAPK12 (human) (UniProt P53778)
Sequence (P53778 whole entry, looked up): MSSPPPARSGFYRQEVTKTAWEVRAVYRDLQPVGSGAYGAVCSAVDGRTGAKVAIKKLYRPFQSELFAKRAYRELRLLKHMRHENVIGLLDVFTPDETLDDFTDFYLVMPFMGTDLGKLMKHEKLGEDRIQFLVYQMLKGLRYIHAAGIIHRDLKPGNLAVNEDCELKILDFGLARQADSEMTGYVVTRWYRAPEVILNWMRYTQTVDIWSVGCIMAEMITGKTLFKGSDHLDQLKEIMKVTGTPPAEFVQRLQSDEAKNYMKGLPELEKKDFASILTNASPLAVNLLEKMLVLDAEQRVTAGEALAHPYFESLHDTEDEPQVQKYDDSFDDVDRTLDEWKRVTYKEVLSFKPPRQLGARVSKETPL
test protocol: KINOMEscan competition binding
condition notes: compound 10.0 µM
Overview of recorded kinase still bound, per cent of control for various compounds
Note: unit % is implicit; provide only the numeric part.

Take a look at these entries with their results.
record_smiles=COc1cc2ncnc(-n3nc(-c4ccccn4)nc3N)c2cc1OC quantity_kind="kinase still bound, per cent of control" observed_measurement=21
record_smiles=CCN(CC)CCCCNc1ncc2cc(-c3cc(OC)cc(OC)c3)c(NC(=O)NC(C)(C)C)nc2n1 quantity_kind="kinase still bound, per cent of control" observed_measurement=100

Let me check: COc1ccc(N(C(=O)Oc2c(C)cccc2C)c2ccnc(Nc3ccc(N4CCN(C)CC4)cc3)n2)c(OC)c1 , system MAPK12 (human) (UniProt P53778), measured kinase still bound, per cent of control is 75

Let me check: N#CCNC(=O)c1ccc(-c2ccnc(Nc3ccc(N4CCOCC4)cc3)n2)cc1 , system MAPK12 (human) (UniProt P53778), measured kinase still bound, per cent of control is 100

* * *

Overview of recorded kinase still bound, per cent of control for various compounds
measured target: UniProt O14733
Sequence (O14733 whole entry, looked up): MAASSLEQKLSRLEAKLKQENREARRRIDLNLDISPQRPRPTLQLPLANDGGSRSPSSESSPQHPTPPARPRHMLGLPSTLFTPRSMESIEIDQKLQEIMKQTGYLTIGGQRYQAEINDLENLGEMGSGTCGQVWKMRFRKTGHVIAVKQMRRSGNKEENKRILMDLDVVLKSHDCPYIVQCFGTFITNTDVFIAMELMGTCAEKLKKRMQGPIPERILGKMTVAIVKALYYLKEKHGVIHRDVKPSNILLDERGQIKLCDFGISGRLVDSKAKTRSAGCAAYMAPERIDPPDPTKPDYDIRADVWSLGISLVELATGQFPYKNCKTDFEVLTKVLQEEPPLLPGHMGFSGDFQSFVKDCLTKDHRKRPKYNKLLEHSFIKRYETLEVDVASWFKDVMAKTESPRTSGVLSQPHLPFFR
test protocol: KINOMEscan competition binding
condition notes: compound 10.0 µM
Note: unit % is implicit; provide only the numeric part.

kinase still bound, per cent of control reported for this compound O=C(Nc1cccc(Nc2ncc(Br)c(NCCc3cnc[nH]3)n2)c1)N1CCCC1 : 60

kinase still bound, per cent of control reported for this compound COc1cc2ncnc(-n3nc(-c4ccccn4)nc3N)c2cc1OC : 77

kinase still bound, per cent of control reported for this compound CCN1CCN(C(=O)Cc2ccc(Nc3ncc(F)c(Nc4ccc(C(=O)Nc5ccccc5Cl)cc4)n3)cc2)CC1 : 100

* * *

measured target: RPS6KA1 KD1 (human)
test protocol: KINOMEscan competition binding
condition notes: compound 10.0 µM
So basically: is kinase still bound, per cent of control under 90%? Then true (1). Not under? Then false (0).

Example entries begin here.
record_smiles=C=CC(=O)Nc1cc(-n2c(=O)ccc3cnc4ccc(-c5cn[nH]c5)cc4c32)ccc1C qualitative_label="true (1)"
record_smiles=CCN1CCN(C(=O)Cc2ccc(Nc3ncc(F)c(Nc4ccc(C(=O)Nc5ccccc5Cl)cc4)n3)cc2)CC1 qualitative_label="true (1)"
record_smiles=COc1cc2ncnc(-n3nc(-c4ccccn4)nc3N)c2cc1OC qualitative_label="true (1)"
record_smiles=CCN(CC)CCCCNc1ncc2cc(-c3cc(OC)cc(OC)c3)c(NC(=O)NC(C)(C)C)nc2n1 qualitative_label="false (0)"
record_smiles=NC(=O)Nc1cc(-c2cccc(F)c2)sc1C(=O)N[C@@H]1CCCNC1 qualitative_label="true (1)"
record_smiles=N#CCNC(=O)c1ccc(-c2ccnc(Nc3ccc(N4CCOCC4)cc3)n2)cc1 qualitative_label="false (0)"

Ask: Find out if reported kinase still bound, per cent of control for COc1cc2ncn(-c3cc(OCc4ccccc4C(F)(F)F)c(C(N)=O)s3)c2cc1OC is less than 90%
Result: false (0)

* * *

Overview of recorded kinase still bound, per cent of control for various compounds
measured target: UniProt Q9UKE5
Sequence (Q9UKE5 whole entry, looked up): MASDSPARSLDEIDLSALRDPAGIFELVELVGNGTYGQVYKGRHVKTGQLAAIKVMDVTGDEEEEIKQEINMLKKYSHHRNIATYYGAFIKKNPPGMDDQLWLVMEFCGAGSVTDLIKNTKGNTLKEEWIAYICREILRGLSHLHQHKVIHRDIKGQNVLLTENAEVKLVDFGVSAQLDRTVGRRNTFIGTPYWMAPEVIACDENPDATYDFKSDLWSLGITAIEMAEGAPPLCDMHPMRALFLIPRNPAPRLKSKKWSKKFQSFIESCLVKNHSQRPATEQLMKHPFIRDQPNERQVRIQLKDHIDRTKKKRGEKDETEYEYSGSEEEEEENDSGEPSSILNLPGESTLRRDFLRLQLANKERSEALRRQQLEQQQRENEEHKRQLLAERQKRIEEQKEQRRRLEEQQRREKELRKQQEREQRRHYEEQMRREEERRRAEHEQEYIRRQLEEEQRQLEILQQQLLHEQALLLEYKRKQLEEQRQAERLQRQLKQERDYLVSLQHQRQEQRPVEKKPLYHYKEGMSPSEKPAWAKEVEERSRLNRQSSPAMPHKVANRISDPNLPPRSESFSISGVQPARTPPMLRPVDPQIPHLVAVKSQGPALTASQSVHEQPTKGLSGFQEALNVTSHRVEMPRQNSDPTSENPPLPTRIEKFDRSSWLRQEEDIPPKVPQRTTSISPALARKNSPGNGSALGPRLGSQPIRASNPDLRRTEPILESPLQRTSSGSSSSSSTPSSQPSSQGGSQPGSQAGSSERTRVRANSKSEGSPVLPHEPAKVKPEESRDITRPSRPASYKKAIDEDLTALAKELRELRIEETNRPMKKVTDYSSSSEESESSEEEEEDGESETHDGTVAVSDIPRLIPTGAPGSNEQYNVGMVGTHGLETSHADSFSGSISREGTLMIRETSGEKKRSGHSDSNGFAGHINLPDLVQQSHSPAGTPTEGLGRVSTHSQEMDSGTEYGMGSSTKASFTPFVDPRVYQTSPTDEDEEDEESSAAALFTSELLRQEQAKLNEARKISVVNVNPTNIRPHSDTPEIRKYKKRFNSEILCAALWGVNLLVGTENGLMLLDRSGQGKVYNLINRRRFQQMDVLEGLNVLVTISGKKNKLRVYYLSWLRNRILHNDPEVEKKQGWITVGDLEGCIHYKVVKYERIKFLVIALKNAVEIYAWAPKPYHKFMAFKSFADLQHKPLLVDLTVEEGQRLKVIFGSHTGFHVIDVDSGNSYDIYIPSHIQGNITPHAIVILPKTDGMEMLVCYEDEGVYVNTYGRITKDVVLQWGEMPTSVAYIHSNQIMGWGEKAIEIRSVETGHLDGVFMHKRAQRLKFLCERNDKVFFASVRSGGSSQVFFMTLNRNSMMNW
test protocol: KINOMEscan competition binding
condition notes: compound 10.0 µM
Note: unit % is implicit; provide only the numeric part.

kinase still bound, per cent of control reported for this compound C[C@@H](Oc1cc(-c2cnn(C3CCNCC3)c2)cnc1N)c1c(Cl)ccc(F)c1Cl : 51

kinase still bound, per cent of control reported for this compound COc1cc(C(=O)N2CCC(N3CCN(C)CC3)CC2)ccc1Nc1ncc2c(n1)N(C)c1ccccc1C(=O)N2C : 100

kinase still bound, per cent of control reported for this compound COCC(=O)NC/C=C/c1ccc2ncnc(Nc3ccc(Oc4ccc(C)nc4)c(C)c3)c2c1 : 89

kinase still bound, per cent of control reported for this compound N#CCNC(=O)c1ccc(-c2ccnc(Nc3ccc(N4CCOCC4)cc3)n2)cc1 : 59

* * *

measured target: CAMKK2 (human)
test protocol: KINOMEscan competition binding
condition notes: compound 10.0 µM
Overview of recorded kinase still bound, per cent of control for various molecules
Note: unit % is implicit; provide only the numeric part.

Take a look at these entries with their results.
record_smiles=CCN1CCN(C(=O)Cc2ccc(Nc3ncc(F)c(Nc4ccc(C(=O)Nc5ccccc5Cl)cc4)n3)cc2)CC1 observed_measurement=48
record_smiles=CS(=O)(=O)N1CCN(Cc2cc3nc(-c4cccc5[nH]ncc45)nc(N4CCOCC4)c3s2)CC1 observed_measurement=100

Now, please, on to the next molecule.
kinase still bound, per cent of control reported for this molecule O=C(Nc1cccc(Nc2ncc(Br)c(NCCc3cnc[nH]3)n2)c1)N1CCCC1 : 2
